System: MDA-MB-231 (triple-negative breast cancer)
ASSAY OVERVIEW: MTT cytotoxicity assay, MDA-MB-231
Type: cell-based
CONDITION DESCRIPTION: Homo sapiens, MDA-MB-231; MTT, 72 h; cutoff 10 µM; read-out: IC50 MDA-MB-231
Recorded IC50 by entry
Form entry: value (µM) — number only.

COMPOUND	UNITS OF MEASURE	IC50
O=c1[nH]cc(F)c(=O)[nH]1 [Compound 5-FU, 5-Fluorouracil, reference compound]	µM	13

Switching to the query record.
Please give the measured IC50 for this compound: N#CC(=O)NCCCOc1c(Br)cc(CCNC=C2C(=O)C=CC2=O)cc1Br
3.1
